Test system: K. pneumoniae (ATCCBAA-1705)
assay-method-text: MIC, standard microtiter dilution (CLSI)
Format: cell-based, Klebsiella pneumoniae
settings: value in parentheses (μM); broth microdilution (CLSI), CAMHB, 37 °C, 24 h
Protocol: Description of the characteristics and growth conditions of various bacterial strains used in the study are provided in the Supporting Information (Table S3). Antibacterial susceptibility testing was carried out using a standard microtiter dilution method recommended by the clinical and laboratory standard institute (CLSI) and measured as a minimum inhibitory concentration (MIC), the lowest peptide concentration that inhibited bacterial growth. […]
Where no end group is shown, it is not given here.
Assign MIC, K. pneumoniae (ATCCBAA-1705) to each entry below.

Some substances with known MIC, K. pneumoniae (ATCCBAA-1705) results, for comparison:
Ac-RWLRRWLRWWRR-NH2 [8c] | 6.35 µM
RWWRRAWRAA-NH2 [4c] | > 70.74 µM
RWWRRAWRA-NH2 [3a] | > 74.48 µM
Ac-KWIKKWIKWWKK-NH2 [7d] | 13.89 µM
ARRWWRRW-NH2 [2e] | > 78.65 µM

Please state, for each entry, its recorded MIC, K. pneumoniae (ATCCBAA-1705).
1. RAWRAWWRRA-NH2 [4f]
2. H-RAWRRWWARA-NH2 [4g]
3. Ac-RWARRWARWWRR-NH2 [6c]
4. Ac-KWAKKWAKWWKK-NH2 [6d]
5. H-RAWRRWARAW-NH2 [4d]
6. RWARRWARWWR-NH2 [5b]
7. Ac-RWIRRWIRWWRR-NH2 [7c]
8. RWARRAWRAW-NH2 [4e]

> 70.74 µM
> 70.74 µM
> 53.10 µM
58.30 µM
> 70.74 µM
> 59.35 µM
12.70 µM
> 70.74 µM

Data origin: paper PMC9841524
